Below, each entry is listed alongside its reported inhibition at 10 µM.
# SYSTEM NAME: FAKcd409 (Homo sapiens, UniProt Q05397, P410T)
# Construct: comprises residues methionine 409 to glutamate 689; made in house; host or cells: baculovirus vector expression system
# Sequence (Q05397 409-689 P410T): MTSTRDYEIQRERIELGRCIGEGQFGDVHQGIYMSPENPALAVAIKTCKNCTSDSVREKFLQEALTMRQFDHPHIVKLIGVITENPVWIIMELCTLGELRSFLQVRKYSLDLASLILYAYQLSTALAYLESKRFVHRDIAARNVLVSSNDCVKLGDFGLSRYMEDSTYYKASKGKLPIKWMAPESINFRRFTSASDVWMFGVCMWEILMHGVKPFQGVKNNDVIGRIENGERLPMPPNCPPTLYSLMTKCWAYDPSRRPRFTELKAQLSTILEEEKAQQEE
# EXPERIMENTAL DETAILS: FAK HTS assay
# Type: biochemical
# MEASUREMENT SETUP: 10 uM compound, HTS Delphia assay
State just the number; it will be interpreted in %.

>>> print(df.to_string())
                        structure_as_smiles                               system_name  result_number
0  CCOC(=O)c1cccc(Nc2nc(N)c(-c3nc(-c4cccc(NC(=O)c5ccccc5)c4)cs3)s2)c1  FAKcd409 (Homo sapiens, UniProt Q05397, P410T)             -6
1  CCOC(=O)c1csc(-c2sc(Nc3ccc(S(N)(=O)=O)cc3)nc2N)n1  FAKcd409 (Homo sapiens, UniProt Q05397, P410T)            -18
2  C=CCOc1cc(O)cc(-c2csc(-c3sc(Nc4ccc(S(N)(=O)=O)cc4)nc3N)n2)c1  FAKcd409 (Homo sapiens, UniProt Q05397, P410T)              7

As a next step, examine the molecule that follows.
What the record says about COc1cc(Nc2nc(N)c(-c3nc(-c4cc(O)cc(O)c4)cs3)s2)cc(OC)c1OC : inhibition at 10 µM is 25

====

# SYSTEM NAME: FL-CHK1 (Homo sapiens, UniProt O14757)
# Construct: C-terminally His-tagged full-length human CHK1 (FL-CHK1); 6xHis (C); made in house; host or cells: baculovirus/insect cells
# Sequence (O14757 whole entry): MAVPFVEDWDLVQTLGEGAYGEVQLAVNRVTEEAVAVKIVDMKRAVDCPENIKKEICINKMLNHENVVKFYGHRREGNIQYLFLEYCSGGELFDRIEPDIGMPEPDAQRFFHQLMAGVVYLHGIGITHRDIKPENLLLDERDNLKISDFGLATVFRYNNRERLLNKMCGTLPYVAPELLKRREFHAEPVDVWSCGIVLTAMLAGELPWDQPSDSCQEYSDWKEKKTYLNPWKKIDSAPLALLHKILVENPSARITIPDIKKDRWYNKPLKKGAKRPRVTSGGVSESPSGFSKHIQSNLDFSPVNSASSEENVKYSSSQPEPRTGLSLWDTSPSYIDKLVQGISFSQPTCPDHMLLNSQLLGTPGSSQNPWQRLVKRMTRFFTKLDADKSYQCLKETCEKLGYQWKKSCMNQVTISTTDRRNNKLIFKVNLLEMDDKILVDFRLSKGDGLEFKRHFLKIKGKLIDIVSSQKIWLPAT
# EXPERIMENTAL DETAILS: CHK1 assay
# Assay type: biochemical
# MEASUREMENT SETUP: 20 μM; combinatorial library compounds
Below, each entry is listed alongside its reported inhibition at 20 µM.
Give the number first and the unit second.

What the record says about CC(C)c1ccc(Nc2nc(N)c(-c3nc(-c4ccc(-c5ccccc5)cc4)cs3)s2)cc1 : inhibition at 20 µM is 3.2%

====

# SYSTEM NAME: CHK1 (Homo sapiens)
# EXPERIMENTAL DETAILS: CHK1 high-throughput screening
# Assay type: biochemical
# MEASUREMENT SETUP: read-out: % inhibition @ 20 μM, Table 4, repeated entries per example
Below, each entry is listed alongside its reported inhibition at 20 µM.
State just the number; it will be interpreted in %.

In [3]: df
Out[3]:
                        structure_as_smiles  result_number
0  Nc1nc(Nc2ccc(S(=O)(=O)N3CCCCC3)cc2)sc1-c1nc(-c2cccc(NC(=O)c3ccccc3)c2)cs1            0.1
1  COC(=O)c1cccc(Nc2nc(N)c(-c3nc(-c4cccc(NC(=O)c5ccccc5)c4)cs3)s2)c1            2.2

As a next step, examine the compound that follows.
inhibition at 20 µM for CHK1 (Homo sapiens) with input COc1cc(Nc2nc(N)c(-c3nc(-c4ccc(Cl)c(O)c4)cs3)s2)cc(OC)c1OC equals 7.5

====

Below, each entry is listed alongside its reported pKi.
# SYSTEM NAME: unphosphorylated VEGF-R2Δ50 (FLVK) (Homo sapiens, UniProt P35968, DEL940-989/E990V)
# Construct: VEGF-R2Δ50 contains residues 806-939 and 990-1171; made in house; host or cells: baculovirus/insect cells
# Sequence (P35968 with tags, fused parts or gaps DEL940-989/E990V limits assumed): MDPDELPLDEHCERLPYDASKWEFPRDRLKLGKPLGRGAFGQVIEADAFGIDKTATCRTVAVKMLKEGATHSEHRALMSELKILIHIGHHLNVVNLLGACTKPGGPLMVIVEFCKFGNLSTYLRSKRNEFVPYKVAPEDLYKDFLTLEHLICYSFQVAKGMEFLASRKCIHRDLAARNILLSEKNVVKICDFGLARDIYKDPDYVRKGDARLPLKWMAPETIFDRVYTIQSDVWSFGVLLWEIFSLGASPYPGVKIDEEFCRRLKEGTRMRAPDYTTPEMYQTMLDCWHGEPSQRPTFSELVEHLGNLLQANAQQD
# EXPERIMENTAL DETAILS: VEGF-R2 coupled spectrophotometric assay, unphosphorylated enzyme (FLVK)
# Assay type: biochemical
# MEASUREMENT SETUP: Table 3; some entries 'Slow binder'
# pKi = -log10(concentration in molar units)

pKi for unphosphorylated VEGF-R2Δ50 (FLVK) (Homo sapiens, UniProt P35968, DEL940-989/E990V) with input COc1cccc(C(=O)Nc2cc(-c3noc(-c4sc(NC(=O)NCC(N)=O)nc4N)n3)c(F)cc2F)c1 [O(3)] equals 9.24

pKi for unphosphorylated VEGF-R2Δ50 (FLVK) (Homo sapiens, UniProt P35968, DEL940-989/E990V) with input COc1cc(Nc2nc(N)c(-c3nc(-c4cccc(NC(=O)c5ccc(CN6CCN(C)CC6)cc5)c4)no3)s2)cc(OC)c1OC [D(77)] equals 8.59

pKi for unphosphorylated VEGF-R2Δ50 (FLVK) (Homo sapiens, UniProt P35968, DEL940-989/E990V) with input CNC(=O)Nc1nc(N)c(-c2nc(-c3cccc(NC(=O)c4cccc(OC)c4)c3)cs2)s1 [F(11)] equals 9.59

pKi for unphosphorylated VEGF-R2Δ50 (FLVK) (Homo sapiens, UniProt P35968, DEL940-989/E990V) with input CNC(=O)Nc1nc(N)c(-c2nc(-c3cccc(NC(=O)c4cccc(Cl)c4)c3)cs2)s1 [F(10)] equals 9.85

pKi for unphosphorylated VEGF-R2Δ50 (FLVK) (Homo sapiens, UniProt P35968, DEL940-989/E990V) with input Cc1cccc(C(=O)Nc2cccc(-c3noc(-c4sc(NC(=O)NCc5ccccc5)nc4N)n3)c2)c1 [F(14)] equals 9.44

pKi for unphosphorylated VEGF-R2Δ50 (FLVK) (Homo sapiens, UniProt P35968, DEL940-989/E990V) with input COc1cc(Nc2nc(N)c(-c3nc(-c4cccc(NC(=O)c5cccc(C#N)c5)c4)no3)s2)cc(OC)c1OC [D(68)] equals 9.16

pKi for unphosphorylated VEGF-R2Δ50 (FLVK) (Homo sapiens, UniProt P35968, DEL940-989/E990V) with input COc1cc(Nc2nc(N)c(-c3nc(-c4cc(NC(=O)c5cccc(Cl)c5)ccc4F)no3)s2)cc(OC)c1OC [D(73)] equals 8.92

====

Below, each entry is listed alongside its reported log10 of Ki.
# SYSTEM NAME: CDK4/Cyclin D3 complex (Homo sapiens, UniProt P11802)
# Construct: made in house; host or cells: insect cells co-infected with baculovirus vectors
# Sequence (P11802 whole entry): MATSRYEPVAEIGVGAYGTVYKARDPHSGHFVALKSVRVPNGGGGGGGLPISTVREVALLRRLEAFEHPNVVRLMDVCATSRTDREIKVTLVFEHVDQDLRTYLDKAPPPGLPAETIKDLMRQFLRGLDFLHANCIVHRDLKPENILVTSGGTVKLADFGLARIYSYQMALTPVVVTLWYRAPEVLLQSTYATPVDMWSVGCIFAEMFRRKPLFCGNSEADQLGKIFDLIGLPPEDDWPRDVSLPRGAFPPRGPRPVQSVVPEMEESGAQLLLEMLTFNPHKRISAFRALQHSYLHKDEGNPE
# Sequence (P30281 whole entry partner): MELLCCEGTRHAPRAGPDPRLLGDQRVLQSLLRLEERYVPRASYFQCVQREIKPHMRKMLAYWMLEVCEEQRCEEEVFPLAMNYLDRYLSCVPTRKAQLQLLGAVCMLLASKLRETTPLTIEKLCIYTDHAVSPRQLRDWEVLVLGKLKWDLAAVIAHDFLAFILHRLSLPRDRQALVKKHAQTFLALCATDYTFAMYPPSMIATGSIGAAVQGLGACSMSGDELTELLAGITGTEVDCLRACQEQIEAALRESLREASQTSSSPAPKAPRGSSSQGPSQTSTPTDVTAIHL
# EXPERIMENTAL DETAILS: CDK4/Cyclin D assay
# Format: biochemical
# MEASUREMENT SETUP: Table 2
Record value = log10 of Ki given in µM.

What the record says about COc1cc(Nc2nc(N)c(-c3cccc(Br)n3)s2)cc(OC)c1OC : log10 of Ki is 2.00

What the record says about Nc1nc(Nc2ccc(S(N)(=O)=O)cc2)sc1-c1nc(-c2ccc(Cl)c(O)c2)cs1 : log10 of Ki is 0.86

What the record says about Cc1nc(-c2sc(Nc3ccc(S(N)(=O)=O)cc3)nc2N)sc1Cc1ccc(F)cc1 : log10 of Ki is 0.89

====

# SYSTEM NAME: FL-CHK1 (Homo sapiens, UniProt O14757)
# Construct: C-terminally His-tagged full-length human CHK1 (FL-CHK1); 6xHis (C); made in house; host or cells: baculovirus/insect cells
# EXPERIMENTAL DETAILS: CHK1 assay
# Type: biochemical
# MEASUREMENT SETUP: 20 μM; combinatorial library compounds
Below, each entry is listed alongside its reported inhibition at 20 µM.
State just the number; it will be interpreted in %.

Worked examples, 5 molecules total:
                                   molecule      recorded_metric  result_number
0  CC(C)c1ccc(Nc2nc(N)c(-c3nc(-c4ccccc4OC(=O)c4ccccc4)cs3)s2)cc1  inhibition at 20 µM           -4.2
1  CCOC(=O)c1ccccc1-c1csc(-c2sc(Nc3ccc(S(N)(=O)=O)cc3)nc2N)n1  inhibition at 20 µM           11.4
2  Cc1cc(-c2csc(-c3sc(Nc4ccc(S(N)(=O)=O)cc4)nc3N)n2)ccc1Cl  inhibition at 20 µM           15.9
3  CN(C)c1ccc(Nc2nc(N)c(-c3nc(-c4cc5cc(Cl)ccc5o4)cs3)s2)cc1  inhibition at 20 µM            7.6
4  CN(C)c1ccc(Nc2nc(N)c(-c3nc(-c4cc(Br)c(Cl)s4)cs3)s2)cc1  inhibition at 20 µM           22.8

What the record says about Cc1cc(-c2csc(-c3sc(Nc4ccc(C(C)C)cc4)nc3N)n2)ccc1Cl : inhibition at 20 µM is 9

What the record says about CC1(C)CCC(C)(C)c2cc(-c3csc(-c4sc(Nc5ccc(S(N)(=O)=O)cc5)nc4N)n3)ccc21 : inhibition at 20 µM is 13.1

====

# SYSTEM NAME: CDK2/Cyclin A complex (Homo sapiens, UniProt P24941)
# EXPERIMENTAL DETAILS: CDK2/Cyclin A assay
# Format: biochemical
# MEASUREMENT SETUP: 1.0 μM; combinatorial library compounds
RECORDED METRIC: inhibition at 1 µM (%)
State just the number; it will be interpreted in %.

Worked examples, 4 molecules total:
>>> print(df.to_string())
                        structure_as_smiles  result_unit  result_number
0  Cc1ccc(-c2csc(-c3sc(Nc4ccc(C(C)C)cc4)nc3N)n2)cc1            %           14.2
1  CN(C)c1ccc(Nc2nc(N)c(-c3nc(-c4ccc(Cl)c([N+](=O)[O-])c4)cs3)s2)cc1            %            4.1
2  CCOC(=O)c1cc(-c2csc(-c3sc(Nc4ccc(N(C)C)cc4)nc3N)n2)on1            %           13.4
3  Cc1c(-c2csc(-c3sc(Nc4ccc(C(C)C)cc4)nc3N)n2)sc2ccccc12            %              4

What the record says about CN(C)c1ccc(Nc2nc(N)c(-c3nc(-c4c(Cl)cc(C(F)(F)F)cc4Cl)cs3)s2)cc1 : inhibition at 1 µM is 29.1
